# studySystem: T1, extracellular domain of human BCMA (human, UniProt Q02223 1-54)
# T1 construct: amine-linked to Octet AR2G tips; also called hsBCMA; BCMA (human)
# T1 sequence: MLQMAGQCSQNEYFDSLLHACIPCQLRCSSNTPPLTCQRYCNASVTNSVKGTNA
# protocolNotes: Octet BLI; Fab 200 nM
Readings of pKd for the listed binders
API: returns pKd as number; meaning -log10 of concentration in mol/L.

Below are worked cases with known answers.
| binder | pKd |
| --- | --- |
| AB200-(2Vk35)_R2-VH-v46 (Fab, V domains shown) VH: QVQLVQSGAEVKKPGSSVKVSCKASGGTYSNYWIHWVRQAPGQGLEWMGATYRIQSDTNYNQKFKSRVTITADKSTSTAYMELSSLRSEDTAVYYCARGAIYHGYDVIENWGQGTLVTVSS VL: DIQMTQSPSSLSASVGDRVTITCRASQSISSYINWYQQKPGKAPKLLIYATSNLQSGVPSRFSGSGSGTDFTLTISSLQPEDFATYYCQQYRRIPWTFGQGTKLEIKR | 6.99 |
| AB200-(2Vk35)_R2-VH-v62 (Fab, V domains shown) VH: QVQLVQSGAEVKKPGSSVKVSCKASGGTFSNYWIHWVRQAPGQGLEWMGGTYRIHSDTYYNEKFKSRVTITADKSTSTAYMELSSLRSEDTAVYYCARGAIYHGYDVIENWGQGTLVTVSS VL: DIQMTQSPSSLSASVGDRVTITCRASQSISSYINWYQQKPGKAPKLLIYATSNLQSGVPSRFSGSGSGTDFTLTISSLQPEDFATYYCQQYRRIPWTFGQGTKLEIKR | 7.84 |

Now for another entry.
### Prompt Query (binder): AB200-(2Vk35)_R2-VH-v8 (Fab, V domains shown) VH: QVQLVQSGAEVKKPGSSVKVSCKASGGTYSNYWIHWVRQAPGQGLEWMGGTYRSQSDTYYNQKFKSRVTITADKSTSTAYMELSSLRSEDTAVYYCARGAIYHGFDVIDNWGQGTLVTVSS VL: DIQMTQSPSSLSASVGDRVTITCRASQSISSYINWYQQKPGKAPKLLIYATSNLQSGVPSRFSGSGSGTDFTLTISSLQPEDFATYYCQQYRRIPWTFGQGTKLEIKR ; field requested: pKd
### Response 7.92
